The reported numbers originate from patent US20240309056A1.

# test target: T1, ubiquitin mutein 211883
# T1 construct: also called Affilin-211883
# assay procedure: SPR (Biacore 3000), ligand multimer immobilised, ubiquitin mutein in solution
Kindly supply the reported Kd values for the records listed here.
Write the answer as a number in nM, unit excluded.

Quick note, Kd for SEQ1 trimer (216000) (designed binder) NAAMDDFAQYSAWAEIEALPNLTEMQKDQFIWSLMFDPSVSKEVLGEAQKLNDSQAPKQAPKVDAKFDQAPKVDAKFDNAAMDDFAQYSAWAEIEALPNLTEMQKDQFIWSLMFDPSVSKEVLGEAQKLNDSQAPKQAPKVDAKFDQAPKVDAKFDNAAMDDFAQYSAWAEIEALPNLTEMQKDQFIWSLMFDPSVSKEVLGEAQKLNDSQAPKC landed at 56.2

Entry under test: SEQ21 trimer (215997) (designed binder) NAARSDEAQYSAWAEIEALPNLTEMQKDQFIWSLMFDPSVSKEVLGEAQKLNDSQAPKQAPKVDAKFDQAPKVDAKFDNAARSDEAQYSAWAEIEALPNLTEMQKDQFIWSLMFDPSVSKEVLGEAQKLNDSQAPKQAPKVDAKFDQAPKVDAKFDNAARSDEAQYSAWAEIEALPNLTEMQKDQFIWSLMFDPSVSKEVLGEAQKLNDSQAPKC . Its Kd was 73.4

So, SEQ1 tetramer (216001) (designed binder) NAAMDDFAQYSAWAEIEALPNLTEMQKDQFIWSLMFDPSVSKEVLGEAQKLNDSQAPKQAPKVDAKFDQAPKVDAKFDNAAMDDFAQYSAWAEIEALPNLTEMQKDQFIWSLMFDPSVSKEVLGEAQKLNDSQAPKQAPKVDAKFDQAPKVDAKFDNAAMDDFAQYSAWAEIEALPNLTEMQKDQFIWSLMFDPSVSKEVLGEAQKLNDSQAPKQAPKVDAKFDQAPKVDAKFDNAAMDDFAQYSAWAEIEALPNLTEMQKDQFIWSLMFDPSVSKEVLGEAQKLNDSQAPKC ? Its Kd was 93.1
